What viscosity was measured for each of the following?
conditions: 333.15 K; 101.33 kPa; Liquid; Falling or rolling sphere viscometry
Answers are plain numbers, in mPa·s.

Query: Look at this compound and give its reported viscosity. `CCCCCCCCCCCC`
Result: 0.819

Query: Sample `OCC1CCCCC1` — what was its viscosity?
Result: 6.283

Query: Could you tell me which viscosity is on file for `CCCCCCCO` ?
Result: 2.137

Please look at the following compound next.
Query: Give the measured viscosity of `CC1CCCCC1` .
Result: 0.469

---

settings: 323.15 K; 101.33 kPa; Liquid; Falling or rolling sphere viscometry
Please provide measured viscosity for the entries that follow.
Numbers only, in mPa·s.

Query: Tell me the measured viscosity of `CC1CCCCC1` , please.
Result: 0.515

Query: Which viscosity is reported for this compound? `CCCCCCCCCCCC`
Result: 0.932

Query: Which measured viscosity value corresponds to `OCC1CCCCC1` ?
Result: 9.099

---
Query: viscosity for `CCCCCCCO` ?
Result: 2.762

---

conditions: 298.15 K; 101.33 kPa; Liquid; Vibrating tube method
± gives the expanded uncertainty stated by the source.
test.readout: mass density

// worked examples, mass density included
Query: Could you share which mass density value was measured for `CCCCCCCO` ?
Result: 818.74 ± 1.6 kg/m3

Query: Look up mass density: `CC1CCCCC1`
Result: 765 ± 1.5 kg/m3

Query: Which mass density is listed for `CCCCCCCCCCCC` ?
Result: 745.2 ± 1.5 kg/m3

Moving on to the next molecule.
Query: Which mass density is listed for `OCC1CCCCC1` ?
Result: 926.43 ± 1.9 kg/m3

---

conditions: 293.15 K; 101.33 kPa; Liquid; Falling or rolling sphere viscometry
test.readout: viscosity (mPa·s)
Give bare numbers, in mPa·s.

Query: Quick check: viscosity of OCC1CCCCC1 [cyclohexylmethanol] ?
Result: 36.96

Query: Entry CCCCCCCCCCCC [dodecane] has what viscosity?
Result: 1.485

Query: Entry under review: CCCCCCCO [heptan-1-ol] . Reported viscosity?
Result: 6.89

More entries:
Query: For the compound CC1CCCCC1 [methylcyclohexane] , what viscosity is on record?
Result: 0.727

---

conditions: 323.15 K; 101.33 kPa; Liquid; Vibrating tube method
test.readout: mass density (kg/m3)
Numbers only, in kg/m3.

Guide cases for mass density, answers given:
Query: Query (compound): `CCCCCCCO` ; field requested: mass density
Result: 800.88

Query: Using the record for `CC1CCCCC1` , report its mass density.
Result: 743.15

Query: Given the compound `CCCCCCCCCCCC` , what is its reported mass density?
Result: 726.98

Continue with the next compound.
Query: Endpoint output: mass density of `OCC1CCCCC1` . Value?
Result: 908.31

---

Task for the reader: assign each of the following compounds its reported mass density.
conditions: 313.15 K; 101.33 kPa; Liquid; Vibrating tube method
One number for each entry, in kg/m3.

Field: mass density. Fill in for each record below.
1. CCCCCCCO [heptan-1-ol]
2. CC1CCCCC1 [methylcyclohexane]
3. CCCCCCCCCCCC [dodecane]
4. OCC1CCCCC1 [cyclohexylmethanol]

Result:
[808.11, 751.95, 734.3, 915.66]

---

settings: 308.15 K; 101.33 kPa; Liquid; Falling or rolling sphere viscometry
Numbers after ± are expanded uncertainties.
test.readout: viscosity
# do not omit the unit; it follows the number

Query: Entry `CC1CCCCC1` : reported viscosity = ?
Result: 0.604 ± 0.013 mPa·s

Query: Tell me the measured viscosity of `CCCCCCCO` , please.
Result: 4.233 ± 0.09 mPa·s

Query: I am curious: what viscosity value has been reported for `CCCCCCCCCCCC` ?
Result: 1.155 ± 0.025 mPa·s

Others:
Query: GET /values?readout=viscosity&item= `OCC1CCCCC1`
Result: 17.32 ± 0.37 mPa·s

---

details: 308.15 K; 101.33 kPa; Liquid; Vibrating tube method
test.readout: mass density (kg/m3)
Numbers only, in kg/m3.

Query: Report mass density for `OCC1CCCCC1` please.
Result: 919.28

Query: What does the data say about its mass density? Entry: `CCCCCCCCCCCC`
Result: 737.94

Take each entry in turn and give its mass density.
1. CC1CCCCC1
2. CCCCCCCO

Result:
1: 756.32; 2: 811.68

---

conditions: 333.15 K; 101.33 kPa; Liquid; Vibrating tube method
Can you tell me mass density for the items I'm about to list?
Give bare numbers, in kg/m3.

Query: Value lookup for mass density; key = CC1CCCCC1 [methylcyclohexane]
Result: 734.28

Query: Look up mass density: CCCCCCCCCCCC [dodecane]
Result: 719.64

List the reported mass density of each compound below.
1. CCCCCCCO [heptan-1-ol]
2. OCC1CCCCC1 [cyclohexylmethanol]

Result:
793.49
900.78

---

settings: 318.15 K; 101.33 kPa; Liquid; Vibrating tube method
Numbers after ± are expanded uncertainties.
Kindly state mass density for each of the entries shown.
Answer as a quantity: numeral, then unit.

Study these solved cases before continuing.
Query: Reported mass density for `OCC1CCCCC1` : what is it?
Result: 912 ± 1.8 kg/m3

Query: I am curious: what mass density value has been reported for `CC1CCCCC1` ?
Result: 747.56 ± 1.5 kg/m3

Query: Entry `CCCCCCCCCCCC` has what mass density?
Result: 730.64 ± 1.5 kg/m3

Here is the next item to consider.
Query: Which mass density is reported for this compound? `CCCCCCCO`
Result: 804.52 ± 1.6 kg/m3

---

details: 328.15 K; 101.33 kPa; Liquid; Vibrating tube method
Please provide measured mass density for the entries that follow.
One number for each entry, in kg/m3.

Examples with their reported mass density follow.
Query: For the compound OCC1CCCCC1 [cyclohexylmethanol] , what mass density is on record?
Result: 904.57

Query: Requested field: mass density. Item: CC1CCCCC1 [methylcyclohexane]
Result: 738.73

Query: Name the recorded mass density for CCCCCCCCCCCC [dodecane] .
Result: 723.31

For the next question, use this compound.
Query: Which mass density is reported for this compound? CCCCCCCO [heptan-1-ol]
Result: 797.2

---

conditions: 303.15 K; 101.33 kPa; Liquid; Vibrating tube method
test.readout: mass density (kg/m3)
Numbers only, in kg/m3.

A selection of reference data follows.
Query: // query mass density value for entry OCC1CCCCC1 [cyclohexylmethanol]
Result: 922.87

Query: Entry CCCCCCCCCCCC [dodecane] : reported mass density = ?
Result: 741.57

Query: Entry under review: CC1CCCCC1 [methylcyclohexane] . Reported mass density?
Result: 760.67

More entries:
Query: Recorded mass density of CCCCCCCO [heptan-1-ol] , please.
Result: 815.22

---

settings: 303.15 K; 101.33 kPa; Liquid; Falling or rolling sphere viscometry
test.readout: viscosity (mPa·s)
One number for each entry, in mPa·s.

Query: For CCCCCCCCCCCC [dodecane] , what is its reported viscosity?
Result: 1.25

I'm hoping you can list viscosity for every molecule here, please.
1. CC1CCCCC1 [methylcyclohexane]
2. CCCCCCCO [heptan-1-ol]
3. OCC1CCCCC1 [cyclohexylmethanol]

Result:
0.64
4.941
22.04

---

Would you kindly list viscosity for each of these compounds?
details: 298.15 K; 101.33 kPa; Liquid; Falling or rolling sphere viscometry
Give bare numbers, in mPa·s.

Some solved entries appear below for comparison.
Query: Given `CC1CCCCC1` , state its recorded viscosity.
Result: 0.681

Query: Please report the recorded viscosity for `OCC1CCCCC1` .
Result: 28.35

Query: So what does the record say about viscosity for `CCCCCCCCCCCC` ?
Result: 1.359

Next:
Query: Field request: viscosity | item: `CCCCCCCO`
Result: 5.805

---

conditions: 293.15 K; 101.33 kPa; Liquid; Vibrating tube method
For each entry below, report its mass density value.
Give bare numbers, in kg/m3.

Worked cases, mass density given:
Query: // lookup mass density for `CCCCCCCCCCCC`
Result: 748.82

Query: Query (compound): `OCC1CCCCC1` ; field requested: mass density
Result: 929.96

Batch lookup, mass density per entry.
1. CC1CCCCC1
2. CCCCCCCO

Result:
1: 769.33; 2: 822.24

---

Record form. Attribute: viscosity. Fill in for each entry.
conditions: 318.15 K; 101.33 kPa; Liquid; Falling or rolling sphere viscometry
Give bare numbers, in mPa·s.

Examples from the recorded data:
Query: Could you share which viscosity value was measured for `CCCCCCCCCCCC` ?
Result: 0.998

Query: Given the entry `CC1CCCCC1` , report its measured viscosity.
Result: 0.542

Dear colleague, could you send me viscosity for each of the items below? Thanks.
1. OCC1CCCCC1
2. CCCCCCCO

Result:
[11.14, 3.165]
